# procedure-text: In vivo pharmacokinetics, IV and oral gavage
# Parameters: species or system male Sprague-Dawley rats
# test-conditions: Table 5; rat, PO 5 mg/kg, IV 2 mg/kg
Structures can show the parent of a compound that is named as a salt.
quantity-measured: FPO (%)
Use % as the unit, but write only the number.

## Input What does the record list as FPO for CC(F)(F)c1ccc([C@H](O)[C@H](N)CNc2ncc(-c3ccc4cnc(F)cc4c3)s2)cc1 [Example 38, trifluoroacetate] ?
## Output 36

## Input Then C[C@@H](c1ccc(C(F)(F)F)cc1)[C@H](N)CNc1ncc(-c2ccc3cnccc3c2)s1 [10′, reference compound] ?
## Output 12

## Input Then CC(F)(F)c1ccc(C[C@H](N)CNc2ncc(-c3ccc4cnccc4c3)s2)cn1 [7′, reference compound] ?
## Output 4

---

Give Cmax for every item shown.
# procedure-text: In vivo pharmacokinetics, IV and oral gavage
# Set-up: species or system male Sprague-Dawley rats
# test-conditions: male, Sprague-Dawley, plasma; rat, IV 2 mg/kg; read-out: IV Cmax
Where a name gives a salt, the structure may show the parent alone.
Use ng/mL as the unit, but write only the number.

## Input What does the record list as Cmax for N[C@H](CNc1ncc(-c2ccc3cnc(F)cc3c2)s1)Cc1ccc(C(F)(F)F)cc1 [Example 4, trifluoroacetate] ?
## Output 959

## Input Then N[C@H](CNc1ncc(-c2ccc3cnccc3c2)s1)[C@@H](CO)c1ccc(C(F)(F)F)cc1 [33′, reference compound] ?
## Output 797

## Input Then N[C@H](CNc1ncc(-c2ccc3cnccc3c2)s1)Cc1ccc(C(F)(F)F)cc1 [4′, reference compound] ?
## Output 422

## Input Then CC(F)(F)c1ccc(C[C@H](N)CNc2ncc(-c3ccc4cnc(F)cc4c3)s2)cn1 ?
## Output 432

## Input Then C[C@@H](c1ccc(C(F)(F)F)cc1)[C@H](N)CNc1ncc(-c2ccc3cnc(F)cc3c2)s1 ?
## Output 426

## Input Then N[C@H](CNc1ncc(-c2ccc3cnc(F)cc3c2)s1)CN1CCC(C(F)(F)F)CC1 ?
## Output 396

---

# procedure-text: In vivo pharmacokinetics, IV and oral gavage
# Parameters: species or system male Sprague-Dawley rats
# test-conditions: male, Sprague-Dawley, plasma; rat, PO 5 mg/kg; read-out: Oral AUClast
Structures can show the parent of a compound that is named as a salt.
Give log10(AUC(0-t)) for every item shown.
Please interpret these as log10 of AUC(0-t) where AUC(0-t) is in ng·h/mL.

## Input What does the record list as log10(AUC(0-t)) for N[C@H](CCc1ncc(-c2ccc3cnc(F)cc3c2)s1)[C@@H](O)c1ccc(C(F)(F)F)cc1 [Example 36, trifluoroacetate] ?
## Output 3.41

## Input Then CC(F)(F)c1ccc(C[C@H](N)CNc2ncc(-c3ccc4cnc(F)cc4c3)s2)cn1 ?
## Output 3.18

## Input Then N[C@H](CNc1ncc(-c2ccc3cnccc3c2)s1)CN1CCC(C(F)(F)F)CC1 [Comparative Example 25′, reference compound] ?
## Output 3.12

## Input Then CC(F)(F)c1ccc([C@H](O)[C@H](N)CNc2ncc(-c3ccc4cnc(F)cc4c3)s2)cc1 [Example 38, trifluoroacetate] ?
## Output 3.44

## Input Then N[C@H](CNc1ncc(-c2ccc3cnccc3c2)s1)Cc1ccc(C(F)(F)F)nc1 [2′, reference compound] ?
## Output 2.07

## Input Then N[C@H](CCc1ncc(-c2ccc3cnccc3c2)s1)[C@@H](O)c1ccc(C(F)(F)F)cc1 [36′, reference compound] ?
## Output 2.05

## Input Then C[C@@H](c1ccc(C(F)(F)F)cc1)[C@H](N)CNc1ncc(-c2ccc3cnccc3c2)s1 [10′, reference compound] ?
## Output 2.69

## Input Then C[C@@H](c1ccc(C(F)(F)F)cc1)[C@H](N)CNc1ncc(-c2ccc3cnc(F)cc3c2)s1 ?
## Output 3.49

## Input Then CC(F)(F)c1ccc(C[C@H](N)CNc2ncc(-c3ccc4cnccc4c3)s2)cn1 [7′, reference compound] ?
## Output 1.48

## Input Then N[C@H](CNc1ncc(-c2ccc3cnccc3c2)s1)Cc1ccc(C(F)(F)F)cc1 [4′, reference compound] ?
## Output 2.64

## Input Then N[C@H](CNc1ncc(-c2ccc3cnc(F)cc3c2)s1)Cc1ccc(C(F)(F)F)cc1 [Example 4, trifluoroacetate] ?
## Output 2.22

## Input Then COCc1nc(NC[C@@H](N)Cc2ccc(C(F)(F)F)cc2)sc1-c1ccc2cnccc2c1 [24′, reference compound] ?
## Output 2.11

## Input Then N[C@H](CNc1ncc(-c2ccc3cnc(F)cc3c2)s1)CN1CCC(C(F)(F)F)CC1 ?
## Output 3.18

## Input Then N[C@H](CNc1ncc(-c2ccc3cnccc3c2)s1)[C@@H](CO)c1ccc(C(F)(F)F)cc1 [33′, reference compound] ?
## Output 2.30

## Input Then N[C@H](CNc1ncc(-c2ccc3cnc(F)cc3c2)s1)Cc1ccc(C(F)(F)F)nc1 ?
## Output 3.38

## Input Then COCc1nc(NC[C@@H](N)Cc2ccc(C(F)(F)F)nc2)sc1-c1ccc2cnc(F)cc2c1 ?
## Output 3.21

## Input Then N[C@H](CNc1ncc(-c2ccc3cnc(F)cc3c2)s1)[C@@H](CO)c1ccc(C(F)(F)F)cc1 ?
## Output 3.33

## Input Then N[C@H](CNc1ncc(-c2ccc3cnc(F)cc3c2)s1)Cc1ccc(Cl)c(F)c1 ?
## Output 3.52

## Input Then CC(F)(F)c1ccc([C@H](O)[C@H](N)CNc2ncc(-c3ccc4cnccc4c3)s2)cc1 [38′, reference compound] ?
## Output 1.48

## Input Then N[C@H](CNc1ncc(-c2ccc3cnccc3c2)s1)Cc1ccc(Cl)c(F)c1 [44′, reference compound] ?
## Output 3.00

## Input Then CC(F)(F)c1ccc(C[C@H](N)CCc2ncc(-c3ccc4cnc(F)cc4c3)s2)cn1 ?
## Output 3.26

---

# tested-on: CYP2D6 (Homo sapiens, UniProt P10635)
# Construct: tissue XenoTech LLC Lot 0610351; host or cells: pooled human liver microsomes
# Sequence (P10635 whole entry): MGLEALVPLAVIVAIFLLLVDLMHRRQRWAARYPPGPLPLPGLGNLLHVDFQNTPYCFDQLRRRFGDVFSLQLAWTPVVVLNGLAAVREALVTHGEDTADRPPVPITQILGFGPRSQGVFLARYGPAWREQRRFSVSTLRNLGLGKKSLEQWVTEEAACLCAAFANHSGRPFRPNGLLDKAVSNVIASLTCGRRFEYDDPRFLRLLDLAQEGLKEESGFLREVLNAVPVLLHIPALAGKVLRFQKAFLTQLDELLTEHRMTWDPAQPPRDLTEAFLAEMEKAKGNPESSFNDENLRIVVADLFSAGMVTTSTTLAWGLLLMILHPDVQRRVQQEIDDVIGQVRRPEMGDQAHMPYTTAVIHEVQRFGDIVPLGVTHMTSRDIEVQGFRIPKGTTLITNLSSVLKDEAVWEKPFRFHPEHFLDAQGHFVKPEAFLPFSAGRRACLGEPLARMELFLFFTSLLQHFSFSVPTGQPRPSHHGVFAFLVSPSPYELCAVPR
# procedure-text: CYP2D6 inhibition assay (bufuralol, pooled human liver microsomes)
# Assay type: in vitro ADME
# test-conditions: pH 7.4, probe bufuralol (5 μM), test compound 3 μM, human liver microsomes 0.25 mg/mL
Where a name gives a salt, the structure may show the parent alone.
Give inhibition at 10 min, 3 μM for every item shown.
Please state the value followed by its unit.

## Input What does the record list as inhibition at 10 min, 3 μM for N[C@H](CNc1ncc(-c2ccc3cnc(F)cc3c2)s1)Cc1ccc(Cl)c(F)c1 [Example 44] ?
## Output 42%

## Input Then N[C@H](CCc1ncc(-c2ccc3cnccc3c2)s1)[C@@H](O)c1ccc(C(F)(F)F)cc1 [36′, reference compound] ?
## Output 86%

## Input Then N[C@H](CNc1ncc(-c2ccc3cnc(F)cc3c2)s1)[C@@H](CO)c1ccc(C(F)(F)F)cc1 [Example 33] ?
## Output 49%

## Input Then N[C@H](CNc1ncc(-c2ccc3cnc(F)cc3c2)s1)Cc1ccc(C(F)(F)F)nc1 [Example 2] ?
## Output 53%

## Input Then C[C@@H](c1ccc(C(F)(F)F)cc1)[C@H](N)CNc1ncc(-c2ccc3cnccc3c2)s1 [10′, reference compound] ?
## Output 86%

## Input Then N[C@H](CNc1ncc(-c2ccc3cnc(F)cc3c2)s1)Cc1ccc(C(F)(F)F)cc1 [Example 4, trifluoroacetate] ?
## Output 44%

## Input Then CC(F)(F)c1ccc([C@H](O)[C@H](N)CNc2ncc(-c3ccc4cnc(F)cc4c3)s2)cc1 [Example 38, trifluoroacetate] ?
## Output 44%

## Input Then N[C@H](CNc1ncc(-c2ccc3cnccc3c2)s1)Cc1ccc(Cl)c(F)c1 [44′, reference compound] ?
## Output 75%

## Input Then CC(F)(F)c1ccc(C[C@H](N)CNc2ncc(-c3ccc4cnccc4c3)s2)cn1 [7′, reference compound] ?
## Output 79%

## Input Then N[C@H](CNc1ncc(-c2ccc3cnc(F)cc3c2)s1)CN1CCC(C(F)(F)F)CC1 [Example 25] ?
## Output 51%

## Input Then C[C@@H](c1ccc(C(F)(F)F)cc1)[C@H](N)CNc1ncc(-c2ccc3cnc(F)cc3c2)s1 [Example 10] ?
## Output 19%

## Input Then CC(F)(F)c1ccc([C@H](O)[C@H](N)CNc2ncc(-c3ccc4cnccc4c3)s2)cc1 [38′, reference compound] ?
## Output 88%

## Input Then N[C@H](CNc1ncc(-c2ccc3cnccc3c2)s1)Cc1ccc(C(F)(F)F)nc1 [2′, reference compound] ?
## Output 94%

## Input Then N[C@H](CCc1ncc(-c2ccc3cnc(F)cc3c2)s1)[C@@H](O)c1ccc(C(F)(F)F)cc1 [Example 36, trifluoroacetate] ?
## Output 27%

---

# procedure-text: In vivo pharmacokinetics, IV and oral gavage
# Set-up: species or system male Sprague-Dawley rats
# test-conditions: Table 6; rat, PO 5 mg/kg, IV 2 mg/kg
quantity-measured: Fpo (%)
Use % as the unit, but write only the number.

## Input What does the record list as Fpo (%) for N[C@H](CNc1ncc(-c2ccc3cnccc3c2)s1)Cc1ccc(Cl)c(F)c1 [44′, reference compound] ?
## Output 45

## Input Then COCc1nc(NC[C@@H](N)Cc2ccc(C(F)(F)F)nc2)sc1-c1ccc2cnc(F)cc2c1 ?
## Output 48

## Input Then N[C@H](CNc1ncc(-c2ccc3cnccc3c2)s1)CN1CCC(C(F)(F)F)CC1 [Comparative Example 25′, reference compound] ?
## Output 65

## Input Then C[C@@H](c1ccc(C(F)(F)F)cc1)[C@H](N)CNc1ncc(-c2ccc3cnccc3c2)s1 [10′, reference compound] ?
## Output 25

## Input Then N[C@H](CNc1ncc(-c2ccc3cnc(F)cc3c2)s1)CN1CCC(C(F)(F)F)CC1 ?
## Output 34

## Input Then N[C@H](CNc1ncc(-c2ccc3cnccc3c2)s1)Cc1ccc(C(F)(F)F)cc1 [4′, reference compound] ?
## Output 20
